# Measurement target: Prostaglandin G/H synthase 2 (Homo sapiens, UniProt P35354)
# Sequence (P35354 whole entry): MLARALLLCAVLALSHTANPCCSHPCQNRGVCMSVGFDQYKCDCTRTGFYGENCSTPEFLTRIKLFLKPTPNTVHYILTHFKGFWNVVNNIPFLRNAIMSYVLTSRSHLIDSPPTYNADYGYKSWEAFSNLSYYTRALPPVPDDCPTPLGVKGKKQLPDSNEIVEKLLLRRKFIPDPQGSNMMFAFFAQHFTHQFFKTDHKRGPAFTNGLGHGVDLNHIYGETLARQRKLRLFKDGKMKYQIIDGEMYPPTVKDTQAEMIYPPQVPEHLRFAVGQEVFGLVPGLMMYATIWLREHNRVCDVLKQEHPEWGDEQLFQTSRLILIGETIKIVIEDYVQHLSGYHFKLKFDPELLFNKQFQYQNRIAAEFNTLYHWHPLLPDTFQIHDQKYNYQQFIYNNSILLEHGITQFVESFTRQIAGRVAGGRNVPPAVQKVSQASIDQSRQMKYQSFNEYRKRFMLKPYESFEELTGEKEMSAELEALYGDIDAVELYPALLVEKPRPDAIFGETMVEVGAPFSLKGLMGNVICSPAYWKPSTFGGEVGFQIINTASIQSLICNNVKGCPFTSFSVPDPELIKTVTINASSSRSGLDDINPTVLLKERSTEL
# Method summary: Inhibition of human recombinant COX2 assessed as decrease in prostaglandin production using arachidonic acid as substrate pretreated for 15 mins followed by substrate addition and measured after 2 mins by enzyme immunoassay
Readout: IC50 (nM)

INSERT INTO measurements (sample_smiles, value_reported) VALUES
  ('S=c1nc(-c2ccc(Cl)cc2)cc(-c2cn(-c3ccccc3)nc2-c2ccc(OCc3ccccc3)cc2)[nH]1', 1100),
  ('Clc1ccc(-c2cc(-c3cn(-c4ccccc4)nc3-c3ccc(OCc4ccccc4)cc3)on2)cc1', 1250),
  ('CC(=O)n1nc(-c2ccc(Cl)cc2)cc1-c1cn(-c2ccccc2)nc1-c1ccc(OCc2ccccc2)cc1', 2790),
  ('S=c1nc(-c2ccccc2)cc(-c2cn(-c3ccccc3)nc2-c2ccc(OCc3ccccc3)cc2)[nH]1', 1000),
  ('c1ccc(COc2ccc(-c3nn(-c4ccccc4)cc3-c3cc(-c4ccccc4)no3)cc2)cc1', 2110),
  ('Nc1nc(-c2ccc(Cl)cc2)cc(-c2cn(-c3ccccc3)nc2-c2ccc(OCc3ccccc3)cc2)n1', 3990),
  ('O=C(/C=C/c1cn(-c2ccccc2)nc1-c1ccc(OCc2ccccc2)cc1)c1ccccc1', 1880),
  ('NC(=S)n1nc(-c2ccc(Cl)cc2)cc1-c1cn(-c2ccccc2)nc1-c1ccc(OCc2ccccc2)cc1', 4690);
